test system: Staphylococcus epidermidis; assay: Antimicrobial activity against methicillin-resistant Staphylococcus epidermidis RP62A after 24 hrs by broth micro-dilution method; type: functional
Please assign Condition not met whenever MIC is at or above 10 µg/mL, and Condition met whenever it is below.

Examples from the recorded data:
[[record]]
structure_notation = "CCCCCCCCCCCCCCCC(=O)NCCN(C(C)=O)[C@@H](C)C(=O)NCCN(C(C)=O)[C@@H](C)C(=O)NCCN(C(=O)CCCN)[C@@H](Cc1ccccc1)C(=O)NCCN(C(=O)CCCN)[C@@H](Cc1ccccc1)C(=O)NCCN(C(=O)CCCN)[C@@H](Cc1ccccc1)C(N)=O"
class = "Condition met"

[[record]]
structure_notation = "CCCCCCCCCCCCCCCC(=O)NCCN(C(=O)CCCN)[C@@H](Cc1ccccc1)C(=O)NCCN(C(=O)CCCN)[C@@H](Cc1ccccc1)C(=O)NCCN(C(=O)CCCN)[C@@H](Cc1ccccc1)C(N)=O"
class = "Condition met"

[[record]]
structure_notation = "CCCCCCCCCCCCCCCC(=O)NCCN(C(=O)CCc1ccccc1)[C@@H](CCCCN)C(=O)NCCN(C(=O)CCc1ccccc1)[C@@H](CCCCN)C(=O)NCCN(C(=O)CCc1ccccc1)[C@@H](CCCCN)C(N)=O"
class = "Condition not met"


With those in mind, consider the next molecule.
Lookup: Is the reported MIC for `CCCCCCCCCCCCCCCC(=O)NCCN(C(=O)CCc1ccccc1)[C@@H](CCCCN)C(=O)NCCN(C(=O)CCc1ccccc1)[C@@H](CCCCN)C(N)=O` strictly below 10 µg/mL?
Found: Condition not met

###

Measured HC50 accompanies every entry in the list below.
test: Toxicity in RBC assessed as hemolysis; assay type: cell-based, Erythrocyte; details: red blood cells (RBC)
Reply numerically in µg/mL, unit not repeated.

// below: answered compounds
[[record]]
structure_notation = "CCCCCCCCCCCCCCCC(=O)NCCN(C(C)=O)[C@@H](C)C(=O)NCCN(C(C)=O)[C@@H](C)C(=O)NCCN(C(=O)CCCN)[C@@H](Cc1ccccc1)C(=O)NCCN(C(=O)CCCN)[C@@H](Cc1ccccc1)C(=O)NCCN(C(=O)CCCN)[C@@H](Cc1ccccc1)C(N)=O"
value = 400

[[record]]
structure_notation = "CCCCCCCCCCCCCCCC(=O)NCCN(C(=O)CCc1ccccc1)[C@@H](CCCCN)C(=O)NCCN(C(=O)CCc1ccccc1)[C@@H](CCCCN)C(=O)NCCN(C(=O)CCc1ccccc1)[C@@H](CCCCN)C(N)=O"
value = 150

[[record]]
structure_notation = "CCCCCCCCCCCCCCCC(=O)NCCN(C(=O)CCCN)[C@@H](Cc1ccccc1)C(=O)NCCN(C(=O)CCCN)[C@@H](Cc1ccccc1)C(=O)NCCN(C(=O)CCCN)[C@@H](Cc1ccccc1)C(=O)NCCN(C(=O)CCCN)[C@@H](Cc1ccccc1)C(=O)NCCN(C(=O)CCCN)[C@@H](Cc1ccccc1)C(N)=O"
value = 250


Pending compound:
Lookup: State, in one line, measured HC50 of `CCCCCCCCCCCCCCCC(=O)NCCN(C(=O)CCCN)[C@@H](Cc1ccccc1)C(=O)NCCN(C(=O)CCCN)[C@@H](Cc1ccccc1)C(=O)NCCN(C(=O)CCCN)[C@@H](Cc1ccccc1)C(N)=O`
Found: 300

###

Measured MIC accompanies every entry in the list below.
test system: Klebsiella pneumoniae; assay: Antimicrobial activity against Klebsiella pneumoniae ATCC 13383 after 24 hrs by broth micro-dilution method; assay type: functional; conditions: ATCC 13383, 24 h
Reply numerically in µg/mL, unit not repeated.

[[record]]
structure_notation = "CCCCCCCCCCCCCCCC(=O)NCCN(C(=O)CCCN)[C@@H](Cc1ccccc1)C(=O)NCCN(C(=O)CCCN)[C@@H](Cc1ccccc1)C(=O)NCCN(C(=O)CCCN)[C@@H](Cc1ccccc1)C(=O)NCCN(C(=O)CCCN)[C@@H](Cc1ccccc1)C(=O)NCCN(C(=O)CCCN)[C@@H](Cc1ccccc1)C(N)=O"
value = 8


Pending molecule:
Lookup: State, in one line, measured MIC of `CCCCCCCCCCCCCCCC(=O)NCCN(C(C)=O)[C@@H](C)C(=O)NCCN(C(C)=O)[C@@H](C)C(=O)NCCN(C(=O)CCCN)[C@@H](CCCCN)C(=O)NCCN(C(=O)CCCN)[C@@H](CCCCN)C(=O)NCCN(C(=O)CCCN)[C@@H](CCCCN)C(N)=O`
Found: 20
